assay.system: T1, OGFr (Homo sapiens, UniProt Q9NZT2)
T1 chain: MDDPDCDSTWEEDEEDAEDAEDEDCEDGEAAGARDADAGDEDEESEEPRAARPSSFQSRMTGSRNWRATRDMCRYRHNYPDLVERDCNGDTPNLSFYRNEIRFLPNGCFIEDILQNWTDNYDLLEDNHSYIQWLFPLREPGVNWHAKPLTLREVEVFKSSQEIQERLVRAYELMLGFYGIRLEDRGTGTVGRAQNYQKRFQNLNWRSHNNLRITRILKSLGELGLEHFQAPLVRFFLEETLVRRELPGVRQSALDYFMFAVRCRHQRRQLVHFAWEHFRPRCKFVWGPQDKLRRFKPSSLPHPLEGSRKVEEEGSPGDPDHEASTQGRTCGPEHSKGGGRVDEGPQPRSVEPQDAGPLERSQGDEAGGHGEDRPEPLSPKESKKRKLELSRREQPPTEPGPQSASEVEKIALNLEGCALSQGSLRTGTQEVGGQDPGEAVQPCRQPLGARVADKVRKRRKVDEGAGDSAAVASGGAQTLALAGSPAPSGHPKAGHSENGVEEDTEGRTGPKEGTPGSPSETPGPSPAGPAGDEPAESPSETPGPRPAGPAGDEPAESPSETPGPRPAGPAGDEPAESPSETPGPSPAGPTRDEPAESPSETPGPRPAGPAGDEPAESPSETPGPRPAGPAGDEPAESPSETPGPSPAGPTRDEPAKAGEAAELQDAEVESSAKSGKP
method.notes: receptor binding assay
measurement.label: Kd (nM)
Please give a number only; it is taken to be in nM.

// Kd value for YGGFM [opioid growth factor (OGF)] : 3.5
